// provenance: patent US6809092B2

Protein target, amino acids: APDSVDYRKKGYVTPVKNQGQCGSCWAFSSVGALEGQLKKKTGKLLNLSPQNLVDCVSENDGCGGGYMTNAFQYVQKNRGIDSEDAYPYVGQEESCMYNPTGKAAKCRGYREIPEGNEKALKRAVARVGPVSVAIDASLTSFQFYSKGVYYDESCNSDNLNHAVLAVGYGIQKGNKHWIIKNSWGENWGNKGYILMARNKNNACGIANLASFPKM
measurement label: pKi
Numbers only, as −log10 of the molar value.

smiles notation | measurement
CC(C)C[C@H](NC(=O)[C@@H]1CCCC[C@@H]1NC(=O)c1ccccc1)C(=O)CN1CCCc2ccccc2C1 | 6.77

Form field pKi, entry CC(C)C[C@H](NC(=O)[C@H](CC(C)C)NC(=O)OCc1ccccc1)C(=O)CN1CCSc2ccccc2C1 : 7.09
